Tested on: UACC-62
Test: Anti-cancer activity against human UACC-62 cells assessed as cell growth inhibition measured after 48 hrs by SRB method
Format: functional, cell-based
Details: UACC-62, 48 h
QUANTITY NAME: IC50 (µM)
Numbers only, in µM.

Lookup: Form entry - test system: UACC-62; read-out: IC50; molecule: C1=C2CNCC3=Cc4c(ccc5ccccc45)OC23Oc2ccc3ccccc3c21
Found: 12.9

---

Tested on: SK-MEL-28
Experiment: Anti-cancer activity against human SK-MEL-28 cells assessed as cell growth inhibition measured after 48 hrs by SRB method
Type: functional, cell-based
Details: SK-MEL-28, 48 h
QUANTITY NAME: pIC50
Answers are plain numbers, as −log10 of the molar value.

Lookup: Item under review: C1=C2CNCC3=Cc4c(ccc5ccccc45)OC23Oc2ccc3ccccc3c21 . Reported pIC50?
Found: 5.00
